molecular target: Glucose transporter (Leishmania mexicana); test: ST_JUDE_LEISH: Cytotoxicity at 2uM final concentration against transgenic Leishmania Mexicana promastigotes LmGT2 that are glucose transport deficient and complemented with the L. Mexicana glucose transporter 2. Activity is measured by DNA content using SYBR green in vitro; assay type: functional
Kindly state inhibition for each of the entries shown.
Answers are plain numbers, in %.

Hi team, please reply with inhibition for each item in this list.
1. CC(C)c1ccc(-c2nc3cc(Cl)cnc3[nH]2)cc1
2. CN(C)c1cccc2c1nc(-c1ccco1)n2CCNCc1ccccc1
3. CC1(C)NC(N)=NC(=N)N1OCc1cc(Cl)c(Cl)cc1CON1C(=N)N=C(N)NC1(C)C

[4.06, -0.13, 0.54]

Hi team, please reply with inhibition for each item in this list.
1. CC1CN(c2cnn(Cc3cccc(NC(=O)Nc4ccc(-c5ccccc5)cc4)c3)c(=O)c2Cl)CC(C)N1 (centres undefined)
2. COc1ccc(C2CC(c3ccccc3)=NN2C(=O)c2ccc(Br)o2)cc1 (centres undefined)
3. CC(C)CCCC(C)(C)NC[C@@H](O)[C@H](Cc1ccccc1)NC(=O)c1cc(NC(C)C)cc(N2CCCCS2(=O)=O)c1F
4. CCN(CC)CCCNc1nccc(N(C)c2ccc(NC(=O)Nc3cc(C(F)(F)F)ccc3F)cc2)n1
5. NC1CCN(Cc2ccc(-c3ccc(-c4nc5ccccc5[nH]4)cc3)cc2)C1 (centres undefined)
6. CCCCNc1ccc(C(=O)NC2CCN(C[C@H](O)c3ccnc4ccc(OC)cc34)CC2)cc1

1. 7.15
2. 0.09
3. 7.87
4. 11.9
5. 5.07
6. 3.39

----------
Kindly state inhibition for each of the entries shown.
target: Solute carrier family 2, facilitated glucose transporter member 1 (Homo sapiens); assay: ST_JUDE_LEISH: Cytotoxicity at 2uM final concentration against transgenic Leishmania Mexicana promastigotes LmGLUT1 that are glucose transport deficient and complemented with the human glucose transporter GLUT1. Activity is measured by DNA content using SYBR green in vitro; assay type: functional
Numbers only, in %.

- COMPOUND: "CCCCCn1c(Sc2ccc(C#N)c([N+](=O)[O-])c2)nnc1-c1ccc(OC)cc1"
  RECORDED VALUE: 9.26
- COMPOUND: "CCCN1CCN(CCCCNc2c3ccccc3nc3ccccc23)CC1"
  RECORDED VALUE: 51.5
- COMPOUND: "CCCN(CC)CCOC(=O)c1ccccc1"
  RECORDED VALUE: 8.35
- COMPOUND: "N#Cc1cc(C(=O)Nc2ccccc2)c(N)nc1SCC(=O)NC(c1ccccc1)c1cccs1 (centres undefined)"
  RECORDED VALUE: 4.19
- COMPOUND: "CC(=O)Nc1ccc(COc2ccc(Nc3ccnc4cc(-c5ccccn5)ccc34)cc2)cc1"
  RECORDED VALUE: 3.41
- COMPOUND: "CS(=O)(=O)N(c1ccc(F)cc1)c1cc(C(=O)N[C@@H](Cc2ccccc2)[C@H](O)CNCc2cccc(C(F)(F)F)c2)cc(N2CCCC2=O)c1"
  RECORDED VALUE: 1.67

Hi team, please reply with inhibition for each item in this list.
1. Cc1cc(=O)c(-c2ccc(Oc3ccc(C(F)(F)F)cc3)cc2)c(C)n1O
2. O=C(Cc1ccc(Cl)cc1)Nc1cc(Cl)ccc1Cn1cnc(N2CCNCC2)cc1=O
3. CCn1cc(CN2CCCC(C(=O)Nc3ccc(-c4nc5ccccc5[nH]4)cc3)C2)c(C)n1 (centres undefined)
4. c1cc(CN2CCCCC2)cc(-c2ccc(-c3nc4ccccc4[nH]3)s2)c1
5. CCCCN(C)CC#Cc1ccc2[nH]c(C)c(Cl)c(=O)c2c1
6. CCn1c(-c2nonc2N)nc2c(-c3cccc(NC(=O)Nc4ccccc4OC)c3)ncc(OCCCN)c21
7. CCCCNc1c(CC)c(C)c(C#N)c2nc3ccccc3n12

1: -1.23; 2: 3.22; 3: 3.61; 4: 4.86; 5: 3.48; 6: 2.94; 7: 29.1

----------
target: Glucose transporter (Leishmania mexicana) (UniProt O61059); assay: ST_JUDE_LEISH: Cytotoxicity at 2uM final concentration against transgenic Leishmania Mexicana promastigotes LmGT2 that are glucose transport deficient and complemented with the L. Mexicana glucose transporter 2. Activity is measured by DNA content using SYBR green in vitro; format: functional
Kindly state inhibition for each of the entries shown.

Please review the entries below; each comes with its answer.
- MOLECULE: "O=C(N1CCN(c2ccc(C(F)(F)F)cc2[N+](=O)[O-])CC1)C(Cl)(Cl)Cl"
  TESTED TARGET: "Glucose transporter (Leishmania mexicana) (UniProt O61059)"
  inhibition: "1.86%"
- MOLECULE: "N=c1c2c(n(Cc3cccc(Cl)c3)c3c1CCC3)CCCC2"
  TESTED TARGET: "Glucose transporter (Leishmania mexicana) (UniProt O61059)"
  inhibition: "20.4%"
- MOLECULE: "COc1cc2c(cc1O)[C@@H]1[C@H](O)[C@@H](O)C=C3CCN(C2)[C@H]31"
  TESTED TARGET: "Glucose transporter (Leishmania mexicana) (UniProt O61059)"
  inhibition: "1.58%"

Hi team, please reply with inhibition for each item in this list.
1. O=S(=O)(Nc1cccc(CCN2CCC(N3CCCCC3)CC2)c1)c1cccc2cccnc12
2. O=C(/C=C/c1ccc(Cl)c(Cl)c1)NC1CCC(CN2CCC(c3nc4cc(O)ccc4[nH]3)CC2)CC1 (centres undefined)
3. NC(=O)c1sc(-n2cnc3ccc(C(=O)NCCN4CCOCC4)cc32)cc1OCc1ccccc1C(F)(F)F
4. Cc1cc(C(=O)NC2CCN(Cc3ccccc3)CC2)ccc1-c1nc2cc(Cl)c(Cl)cc2[nH]1
5. Cc1nc2ccccc2n1C1CC2CCC(C1)N2CCCC1(c2ccccc2)CCN(C(=O)OCc2ccccc2)CC1 (centres undefined)

1. -2.07%
2. 2.71%
3. -0.32%
4. 3.05%
5. 2.57%

Quote inhibition with test system Glucose transporter (Leishmania mexicana) (UniProt O61059) for COc1ccc(CC(=O)NC(CCCN2CCC(c3ccccc3)CC2)c2ccc(Cl)c(Cl)c2)cc1OC (centres undefined)
0.22%

----------
Kindly state inhibition for each of the entries shown.
target: Hexose transporter 1 (Plasmodium falciparum); test: ST_JUDE_LEISH: Cytotoxicity at 2uM final concentration against transgenic Leishmania Mexicana promastigotes LmPfHT that are glucose transport deficient and complemented with the Plasmodium falciparum hexose transporter. Activity is measured by DNA content using SYBR green in vitro; type: functional
Give bare numbers, in %.

Please review the entries below; each comes with its answer.
- COMPOUND: "CCN(CC)CCN(Cc1ccc(-c2ccc(C(F)(F)F)cc2)cc1)C(=O)Cn1nc(-c2ccc(C(F)(F)F)cc2)ccc1=O"
  inhibition [%]: 2.04
- COMPOUND: "Cc1cc(C(=O)NC2CCN(Cc3ccccc3)CC2)ccc1-c1nc2cc(Cl)c(Cl)cc2[nH]1"
  inhibition [%]: -0.19
- COMPOUND: "O=C(/C=C/c1ccc(Cl)c(Cl)c1)N1CCC(CN2CCC(c3c[nH]c4ccncc34)CC2)CC1"
  inhibition [%]: 5.47
- COMPOUND: "O=C(NCCCCNCC(Cc1cccc(O)c1)c1ccccc1)c1ccc(NC(=O)c2ccc(Cl)cc2)cc1 (stereo not drawn)"
  inhibition [%]: -3.38
- COMPOUND: "COC(=O)c1ccc2nc(-c3ccc(/C=C/C(=O)NCc4ccc(Cl)c(Cl)c4)cc3)[nH]c2c1"
  inhibition [%]: 0.43

Hi team, please reply with inhibition for each item in this list.
1. COc1ccc(OC)c2c1CCN(CCN1CCC(C(=O)Nc3ccc(C(=O)Nc4ccc(Cl)cc4)cc3)CC1)C2
2. CCCCCn1c(Sc2ccc(C#N)c([N+](=O)[O-])c2)nnc1-c1ccc(OC)cc1
3. Cc1cccc2nc(-c3cccc(-c4ccc(NC(=O)NC5CC5c5ccccc5)cc4)c3)[nH]c12 (stereo not drawn)

1. 0.47
2. 6
3. 3.69

----------
target: Hexose transporter 1 (Plasmodium falciparum); test: ST_JUDE_LEISH: Cytotoxicity at 2uM final concentration against transgenic Leishmania Mexicana promastigotes LmPfHT that are glucose transport deficient and complemented with the Plasmodium falciparum hexose transporter. Activity is measured by DNA content using SYBR green in vitro; format: functional
MEASURE NAME: inhibition (%)
Answers are plain numbers, in %.

Please review the entries below; each comes with its answer.
- COMPOUND: "Cc1cc(N2Cc3ccccc3C2)nc(Nc2cccc(C#N)c2)n1"
  inhibition [%]: 4.04
- COMPOUND: "O=C(NCCCCCN1CCC(c2c[nH]c3ccccc23)CC1)Nc1cccc(Cl)c1"
  inhibition [%]: 0.53
- COMPOUND: "COCCNCc1ccc(-c2cccc(CNC3CCN(Cc4ccccc4)CC3)c2)cc1"
  inhibition [%]: 3.16
- COMPOUND: "COc1ccc(CNC(=O)c2cnc3c(O)cccc3c2Nc2cccc(NC(=O)c3ccc(Cl)c([N+](=O)[O-])c3)c2)cc1"
  inhibition [%]: 6.77
- COMPOUND: "Cn1cnc2nc(NCCc3ccccc3)nc(NCc3cccc4ccccc34)c21"
  inhibition [%]: 1.38
- COMPOUND: "CC(C)(C)NCCN(Cc1ccc(-c2ccc(C(F)(F)F)cc2)cc1)C(=O)Cn1c(CCc2cccc(F)c2F)nc(=O)c2c1CCC2"
  inhibition [%]: 7.22
- COMPOUND: "COc1ccc(Nc2nccc(N3CCC(NC(=O)c4cccc(C#N)c4)C3)n2)cc1 (centres undefined)"
  inhibition [%]: 4.34
- COMPOUND: "CSc1nc2nc(C)c(Cc3cccc(C(F)(F)F)c3)c(C)n2n1"
  inhibition [%]: 0

Turning to the following compound.
Could you please provide reported inhibition for O=C(Nc1cccc(-c2ccc(-c3nc4cc(C(F)(F)F)ccc4[nH]3)cc2)c1)c1cccnc1 ? Thanks!
1.71

Ref: ChEMBL document CHEMBL3433997
